- EXPERIMENT SUMMARY: NCI Yeast Anticancer Drug Screen. Data for the mec2-1 strain (AID 157)
- EXPERIMENTAL PARAMETERS: S. cerevisiae mec2-1 strain, at 50.0 µM (retest, dose inferred, filed as 5.0)
The panel holds about 79,000 compounds, 15% with a hit somewhere; the sample as a whole holds those more often. The source made the active and inactive calls. Rule as the data show it: active = growth inhibition above about 70%; inactive = the rest.
Classes used: t for active, f for inactive

- C[N+]1(C)C/C(=C\C=C\c2ccccc2)C(=O)/C(=C/C=C/c2ccccc2)C1: f
- NC1=NC2=C(CCCC2)C(c2cccs2)S1 (configuration not stated): t
- CC(=O)N(C1=C(Cl)C(=O)c2ccccc2C1=O)c1ccc([N+](=O)[O-])cc1: t
- Cc1cn(C2OC(CO)C(O)C(O)C2N)c(=O)[nH]c1=O (configuration not stated): f
- CCN1CCC(O)(/C=C/c2ccccc2)C(C(=O)/C=C/c2ccccc2)C1 (configuration not stated): t
- C/C(=N\NC(=S)N1CCC(O)CC1)c1ccccn1: t
- Cc1nc(C(N)=S)sc1C(=O)CC(=O)C(=O)Nc1nc2ccccc2[nH]1: f

====

We begin with a simple list: items and their reported growth inhibition.
- EXPERIMENT SUMMARY: NCI Yeast Anticancer Drug Screen. Data for the cln2 rad14 strain (AID 165);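 also: 0% = growth equal to vehicle treated cultures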
- EXPERIMENTAL PARAMETERS: S. cerevisiae cln2 rad14 strain, at 50.0 µM (retest, dose inferred, filed as 5.0), active compounds read high
- Description: Growth inhibition of yeast strains with defined genetic alterations is measured as a screen for potential anti-cancer activity. Selected strains with alterations in DNA damage repair or cell cycle control were exposed to compounds and growth inhibition was measured relative to vehicle treated controls. The strain used in this assay is cln2 rad14
The panel holds about 79,000 compounds, 15% with a hit somewhere; the sample as a whole holds those more often.
READOUT: growth inhibition (%)

* CCCCCCN(CCCCCC)CCCC(O)c1cccc2ccccc12 (stereo not given) | -3
* O=C(O)CCCCCCCCCC[S+](CCO)CCO | 12
* COc1cc(C/C=C/c2ccccc2)c(OC)cc1O | 29
* CCC[CH2][Sn]([CH2]CCC)([O]C(=O)c1ccc(C)c(N)c1)[O]C(=O)c1ccc(C)c(N)c1 | 96
* CN(C)C(=S)N1C(=S)N(c2ccccc2)C(=Nc2ccccc2)C1=Nc1ccccc1 | -12
* O=C1C(=O)C(Cl)=C(Cl)C(Cl)=C1Cl | 98
* O=C(O)C(O)C(O)C(OC1OC(CO)C(O)C(O)C1O)C(O)CO.[Br][Pt].[NH-]C1CCCCC1[NH-] (stereo not given) | 72
* CN(Nc1ccc(Cl)cc1)c1ccc(Cl)cc1 | 95
* COc1ccc2ccc(=O)oc2c1CC=C(C)C | 98
* O=C1Nc2c(Cl)cc(Cl)cc2/C1=N/N=C/c1ccccc1O | 48
* Nc1ccc2c(SCC(=O)Nc3ccccc3-c3ccccc3NC(=O)CSc3c4ccccc4nc4cc(N)ccc34)c3ccccc3nc2c1 | 97
* O=C(Nc1ccccc1)OC1CCCC1 | 28
* O=C1/C(=C\c2ccccc2)C(NC2CCCCC2)c2ccccc21 (stereo not given) | 100
* Cc1cn(C2OC(CO)C(O)C(O)C2N)c(=O)[nH]c1=O (stereo not given) | 0
* O=C1c2ccccc2C(=O)N1CCn1ccc(NC(c2ccccc2)(c2ccccc2)c2ccccc2)nc1=O | 5
* Cc1cc(O)c(C=NC(=S)C(N)=S)c(=O)o1 | 22
* CC(=O)O[C@@H]1CC(C)C2CC2C2=C(C(O)OC2O)[C@@H]1C(C)CCC=C(C)C (stereo not given in full) | 98
* CN(Cc1ccccc1)C(c1ccccc1)C(O)C(O)(c1ccccc1)c1ccccc1 (stereo not given) | 16
* Oc1c(Cl)cc(Cl)cc1C=Nc1cc(C(F)(F)F)ccc1Cl | 76
* Cc1ccccc1N=Nc1ccccc1 | 98
* CCN(CC)c1cc(Nc2c3ccc(Cl)cc3nc3cc(Cl)ccc23)ccc1O | -3
* CCC[N+]1=C(/C=C/c2cc(C)c3cccnc3c2O)C(C)(C)c2ccccc21 | 90
* Cc1c(N)nc(C2CC(=O)N2CC(N)C(N)=O)nc1C(=O)NC(C(=O)NC(C)C(O)C(C)C(=O)NC(C(=O)NCCc1nc(-c2nc(C(=O)NCCNCC(C)O)cs2)cs1)C(C)O)C(OC1OC(CO)C(O)C(O)C1OC1OC(CO)C(O)C(OC(N)=O)C1O)c1cnc[nH]1 (stereo not given) | 92
* CCc1c(C)[nH]c2c([N+](=O)[O-])cccc12 | -2
* CCCC(=O)Oc1ccc(OCc2ccccc2)cc1 | -15
* Cc1ccc(S(=O)(=O)/C=C2\COc3ccccc3C2=O)cc1 | 99
* CCCCCNc1ccc2c(cc1=O)C(NC(C)=O)CCc1cc(OC)c(OC)c(OC)c1-2 (stereo not given) | 93
* c1cc2cc(Cc3ccc4[nH]ccc4c3)ccc2[nH]1 | 10
* CC(=O)Nc1ccc(NC(=S)Nc2ccc(NC(C)=O)cc2)cc1 | 99
* CNC(=O)OCCC(OC(=O)NC)C1CCC2C3CC=C4CC(OC(=O)NC)CCC4(C)C3CCC12C (stereo not given) | 89
* O=C(NN1C(=O)C(Cl)C1c1ccc(O)cc1)c1ccccc1O (stereo not given) | 63
* COc1cccc(/C=N/N(C)C)c1O | -8
* COP(=O)(OC)/C(=C/c1cn(C(c2ccccc2)(c2ccccc2)c2ccccc2)cn1)NC=O | 14
* O=C1c2sccc2-c2cccc3cccc1c23 (tested in a mixture with another compound) | 96
* Cc1ccc(Sc2ccc3ccccc3n2)cc1 | -24

====

- EXPERIMENT SUMMARY: NCI Yeast Anticancer Drug Screen. Data for the mlh1 rad18 strain (AID 175)
- EXPERIMENTAL PARAMETERS: S. cerevisiae mlh1 rad18 strain growth inhibition; at 50.0 µM (retest, dose inferred, filed as 5.0); active compounds read high
- Method: Growth inhibition of yeast strains with defined genetic alterations is measured as a screen for potential anti-cancer activity. Selected strains with alterations in DNA damage repair or cell cycle control were exposed to compounds and growth inhibition was measured relative to vehicle treated controls. The strain used in this assay is mlh1 rad18
The panel holds about 79,000 compounds, 15% with a hit somewhere; the sample as a whole holds those more often.
READOUT: growth inhibition (%)

* CCCCCCCCCCCN1C(=O)c2ccccc2S1(=O)=O | 95
* O=C(c1ccccc1)c1ccc(OCC2CO2)cc1 (centres undefined) | 74
* C[N+]1(Cc2ccc([N+](=O)[O-])cc2)CCC[C@H]1c1ccc[n+](Cc2ccc([N+](=O)[O-])cc2)c1 (some centres undefined) | 24
* O=C(O)CSCc1cc2c3ccccc3sc2c2ccccc12 | 99
* Cc1c(Cl)ccc2c(C(O)CNCc3ccccc3)cc(-c3ccc(Cl)cc3)nc12 (centres undefined) | 95
* COc1ccc(C(C)c2cc3c(cc2OC/C(C)=N/NC(N)=O)OCO3)cc1 (centres undefined) | 96
* O=C(O)c1ccccc1-c1c2cc([N+](=O)[O-])c(=O)c(Br)c-2oc2c(Br)c(O)c([N+](=O)[O-])cc12 | 96
* CCCC[N-]CC(O)C[NH-].O=C(O)CC(=O)O.[Pt+2] (centres undefined) | -7
* O=C(Nc1ccccc1)c1ccc([N+](=O)[O-])o1 | 91
* c1ccc(Cn2nnnc2-c2ccccc2)cc1 | -89
* O=C(NCCCl)N1CCC(CN=c2cc3n(-c4ccc(Cl)cc4)c4ccccc4nc-3cc2Nc2ccc(Cl)cc2)CC1 | 98
* O=C1c2ccccc2C(=O)c2cc(N3C(=O)C=CC3=O)ccc21 | 80
* COc1ccc(/C=C2\CN(C)C/C(=C\c3ccc(OC)c(OC)c3OC)C2=O)c(OC)c1OC | 97
* COc1cc(C2c3cc4c(cc3OC(NNc3ccccc3)C2C)OCO4)cc(OC)c1O (centres undefined) | 97
* CCC(=O)C(C(=O)CC)c1c(OC(=O)c2ccccc2)ccc(O)c1C(=O)OC | 30
* O=C1C2C3C=CC(C3)C2C(=NS(=O)(=O)c2ccccc2)C2C3C=CC(C3)C12 (centres undefined) | 12
* CCCCCCCCCCOC1C(C(O)CNCCCN(C)C)OC2OC3(CCCCC3)OC21 (centres undefined) | 97
* [Cl-].[La+3].[O-]/N=C(\c1ccccc1)c1ccccn1.[O-]/N=C(\c1ccccc1)c1ccccn1.[O-]/N=C(\c1ccccc1)c1ccccn1 | 68
* OC1CCC(COC(c2ccccc2)(c2ccccc2)c2ccccc2)O1 (centres undefined) | 99
* CCN(CC)CCCC(C)Nc1cc(O)c2c(c1O)C(=O)c1ccccc1C2=O (centres undefined) | 98
* CC(NNC(=S)N1CCCC1)c1ccccn1 (centres undefined) | 98
* CCC[CH2][Sn]([CH2]CCC)([O]C(=O)C1CCC(=O)N1)[O]C(=O)C1CCC(=O)N1 (centres undefined) | 95
* CC(Nc1cc(Cl)cc(Cl)c1)c1ccncc1 (centres undefined) | 98
* COc1cc2c(c(O)c1C)C(=O)C(Cl)=CC2=O | 99
